Tested on: Saccharomyces cerevisiae
EXPERIMENTAL_PROTOCOL: protein stability index of tFT-peptide fusion in deletion strain of DOA10 (PSI (0-1 scale)); higher = more stable (slower turnover)
QUANTITY_KIND: protein stability index

SEQUENCE: CLVSLVILLFFR
TESTED_TARGET: Saccharomyces cerevisiae
NUMERIC_RESULT: 0.34

SEQUENCE: CLVSLPILQFFR
TESTED_TARGET: Saccharomyces cerevisiae
NUMERIC_RESULT: 0.66

SEQUENCE: GLYMCSVGCWFL
TESTED_TARGET: Saccharomyces cerevisiae
NUMERIC_RESULT: 0.598

SEQUENCE: GLCMCSVGCWFR
TESTED_TARGET: Saccharomyces cerevisiae
NUMERIC_RESULT: 0.608

SEQUENCE: RVTRLDAIYFRF
TESTED_TARGET: Saccharomyces cerevisiae
NUMERIC_RESULT: 0.718

SEQUENCE: CLVSYPILLFFR
TESTED_TARGET: Saccharomyces cerevisiae
NUMERIC_RESULT: 0.603

SEQUENCE: DITLPMCPLLLR
TESTED_TARGET: Saccharomyces cerevisiae
NUMERIC_RESULT: 0.655

SEQUENCE: GLYMCSVRCWFR
TESTED_TARGET: Saccharomyces cerevisiae
NUMERIC_RESULT: 0.442

SEQUENCE: AITLPMCPLLLRE
TESTED_TARGET: Saccharomyces cerevisiae
NUMERIC_RESULT: 0.634

SEQUENCE: RSLRVLLPLYFR
TESTED_TARGET: Saccharomyces cerevisiae
NUMERIC_RESULT: 0.66

SEQUENCE: GLYMCSVGKWFR
TESTED_TARGET: Saccharomyces cerevisiae
NUMERIC_RESULT: 0.674

SEQUENCE: RVTRLDQIYFRI
TESTED_TARGET: Saccharomyces cerevisiae
NUMERIC_RESULT: 0.696

SEQUENCE: CLVSLPVLLFFR
TESTED_TARGET: Saccharomyces cerevisiae
NUMERIC_RESULT: 0.614

SEQUENCE: GLYMDSVGCWFR
TESTED_TARGET: Saccharomyces cerevisiae
NUMERIC_RESULT: 0.727

SEQUENCE: ADTLPMCPLLLR
TESTED_TARGET: Saccharomyces cerevisiae;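 further: PSI per variant is the weighted mean of its sequencing read distribution over the sorted stability bins, counting only variants with over 10 reads summed across bins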
NUMERIC_RESULT: 0.679

Cited source: the supplement of paper PMC10724198
